Value source: patent US10280198B2

# key: entry, value: Histamine in vitro Fold change of non-treated at 10 uM
System: rat peritoneal mast cells
PROTOCOL NOTES: In vitro histamine induction in rat peritoneal mast cells
Type: cell-based
Description: To further evaluate the relationship between compound structure and histamine release, a series of compounds was prepared and assessed for their ability to trigger induction of histamine in an in vitro assay using rat peritoneal mast cells. In this assay, compounds are incubated at 10 μM for 15 minutes at 37° C. with cells isolated from peritoneal lavage of SD rats. Following incubation, cell medium is collected and histamine is determined. […]
Square brackets hold non-standard residues; d marks the D form. Peptide text beside a SMILES is read from it. dNle = CCCC[C@@H](N)C(=O)O; dNva = CCC[C@@H](N)C(=O)O
Answer format: numeric, fold implied, no suffix.

CC(=O)N[C@H](CS)C(=O)N[C@H](CCCNC(=N)N)C(=O)N[C@H](C)C(=O)N[C@H](CCCNC(=N)N)C(=O)N[C@H](CCCNC(=N)N)C(=O)N[C@H](C)C(=O)N[C@H](CCCNC(=N)N)C(N)=O [SEQ ID NO: 23, Ac-crarrar-NH2] (Ac-[dC][dR][dA][dR][dR][dA][dR]-NH2) = 1.5
CCCC[C@@H](NC(=O)[C@@H](CS)NC(C)=O)C(=O)N[C@H](CCCNC(=N)N)C(=O)N[C@H](CCCNC(=N)N)C(=O)N[C@H](CCCNC(=N)N)C(=O)N[C@H](C)C(=O)N[C@H](CCCNC(=N)N)C(N)=O [SEQ ID NO: 134, Ac-c-dNle-rrrar-NH2] (Ac-[dC][dNle][dR][dR][dR][dA][dR]-NH2) = 2.2
CC(=O)N[C@H](CSSC[C@H](N)C(=O)O)C(=O)N[C@H](C)C(=O)N[C@H](CCCNC(=N)N)C(=O)N[C@H](CCCNC(=N)N)C(=O)N[C@H](CCCNC(=N)N)C(=O)N[C@H](C)C(=O)N[C@H](CCCNC(=N)N)C(N)=O = 0.6
CC(=O)N[C@H](CS)C(=O)N[C@H](CCCNC(=N)N)C(=O)N[C@H](CCCNC(=N)N)C(=O)N[C@@H](C(=O)N[C@H](CCCNC(=N)N)C(=O)N[C@H](C)C(=O)N[C@H](CCCNC(=N)N)C(N)=O)C(C)C [SEQ ID NO: 113, Ac-crrvrar-NH2] (Ac-[dC][dR][dR][dV][dR][dA][dR]-NH2) = 1.9
CC[C@@H](C)[C@@H](NC(=O)[C@@H](CCCNC(=N)N)NC(=O)[C@@H](CCCNC(=N)N)NC(=O)[C@@H](CS)NC(C)=O)C(=O)N[C@H](CCCNC(=N)N)C(=O)N[C@H](C)C(=O)N[C@H](CCCNC(=N)N)C(N)=O [SEQ ID NO: 115, Ac-crrirar-NH2] (Ac-[dC][dR][dR][dI][dR][dA][dR]-NH2) = 3.4

// Histamine in vitro Fold change of non-treated at 10 uM lookup, molecule = CC(=O)N[C@H](CS)C(=O)N[C@H](C)C(=O)N[C@H](CCCNC(=N)N)C(=O)N[C@H](CCCNC(=N)N)C(=O)N[C@H](CCCNC(=N)N)C(=O)N[C@@H](C(=O)N[C@H](CCCNC(=N)N)C(N)=O)[C@H](C)O [SEQ ID NO: 91, Ac-carrrtr-NH2] (Ac-[dC][dA][dR][dR][dR][dT][dR]-NH2) , result: 1.7

// Histamine in vitro Fold change of non-treated at 10 uM lookup, molecule = CC(=O)N[C@H](CS)C(=O)N[C@H](C)C(=O)N[C@H](CCCNC(=N)N)C(=O)N[C@H](CCCNC(=N)N)C(=O)N[C@H](CCCNC(=N)N)C(=O)N[C@@H](C(=O)N[C@H](CCCNC(=N)N)C(N)=O)C(C)C [SEQ ID NO: 87, Ac-carrrvr-NH2] (Ac-[dC][dA][dR][dR][dR][dV][dR]-NH2) , result: 1.2

// Histamine in vitro Fold change of non-treated at 10 uM lookup, molecule = CC(=O)N[C@H](CS)C(=O)N[C@H](CCCNC(=N)N)C(=O)N[C@H](CCCNC(=N)N)C(=O)N[C@H](CC(C)C)C(=O)N[C@H](CCCNC(=N)N)C(=O)N[C@H](C)C(=O)N[C@H](CCCNC(=N)N)C(N)=O [SEQ ID NO: 114, Ac-crrlrar-NH2] (Ac-[dC][dR][dR][dL][dR][dA][dR]-NH2) , result: 4.5

// Histamine in vitro Fold change of non-treated at 10 uM lookup, molecule = CC(=O)N[C@H](CS)C(=O)N[C@H](C)C(=O)N[C@H](CCCNC(=N)N)C(=O)N[C@H](CCCNC(=N)N)C(=O)N[C@H](CCCNC(=N)N)C(=O)N[C@H](Cc1c[nH]cn1)C(=O)N[C@H](CCCNC(=N)N)C(N)=O [SEQ ID NO: 89, Ac-carrrhr-NH2] (Ac-[dC][dA][dR][dR][dR][dH][dR]-NH2) , result: 2.0

// Histamine in vitro Fold change of non-treated at 10 uM lookup, molecule = CC(=O)N[C@H](CS)C(=O)N[C@H](CCCNC(=N)N)C(=O)N[C@H](C)C(=O)N[C@H](CCCNC(=N)N)C(=O)N[C@H](C)C(=O)N[C@H](CCCNC(=N)N)C(=O)N[C@H](CCCNC(=N)N)C(N)=O [SEQ ID NO: 18, Ac-crararr-NH2] (Ac-[dC][dR][dA][dR][dA][dR][dR]-NH2) , result: 1.4

// Histamine in vitro Fold change of non-treated at 10 uM lookup, molecule = CCC[C@@H](NC(=O)[C@@H](CCCNC(=N)N)NC(=O)[C@@H](CCCNC(=N)N)NC(=O)[C@@H](CCCNC(=N)N)NC(=O)[C@@H](C)NC(=O)[C@@H](CS)NC(C)=O)C(=O)N[C@H](CCCNC(=N)N)C(N)=O [SEQ ID NO: 131, Ac-carrr-dNva-r-NH2] (Ac-[dC][dA][dR][dR][dR][dNva][dR]-NH2) , result: 1.8

// Histamine in vitro Fold change of non-treated at 10 uM lookup, molecule = CC(=O)N[C@H](CS)C(=O)N[C@H](C)C(=O)N[C@H](CCCNC(=N)N)C(=O)N[C@H](C)C(=O)N[C@H](CCCNC(=N)N)C(=O)N[C@H](CCCNC(=N)N)C(=O)N[C@H](CCCNC(=N)N)C(N)=O [SEQ ID NO: 15, Ac-cararrr-NH2] (Ac-[dC][dA][dR][dA][dR][dR][dR]-NH2) , result: 2.5

// Histamine in vitro Fold change of non-treated at 10 uM lookup, molecule = CC(=O)N[C@H](CS)C(=O)N[C@H](CCCNC(=N)N)C(=O)N[C@H](CCCNC(=N)N)C(=O)N[C@H](CCC(N)=O)C(=O)N[C@H](CCCNC(=N)N)C(=O)N[C@H](C)C(=O)N[C@H](CCCNC(=N)N)C(N)=O [SEQ ID NO: 112, Ac-crrqrar-NH2] (Ac-[dC][dR][dR][dQ][dR][dA][dR]-NH2) , result: 1.2
